- TARGET OR TEST SYSTEM: UniProt O15151
- Sequence (O15151 1-125): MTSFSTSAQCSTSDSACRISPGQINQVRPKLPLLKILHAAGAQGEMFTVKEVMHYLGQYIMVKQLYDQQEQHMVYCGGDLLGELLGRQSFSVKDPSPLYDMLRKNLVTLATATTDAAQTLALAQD
- TEST DESCRIPTION: Competitive fluorescence polarization assay for MDMX
- Format: binding
- CONDITIONS USED: competitive FP assay, read-out: Ki (MDMX)
pKi: −log10 of the molar value. Where a SMILES comes first, the peptide text is derived from it. Bridges are numbered along the chain shown (N, C = ends). [ ]: non-standard residue; d: D form. R8 = C=CCCCCCC[C@@](C)(N)C(=O)O; Cba = N[C@@H](CC1CCC1)C(=O)O; S5 = C=CCCC[C@](C)(N)C(=O)O
READOUT TYPE: pKi

Query :: Which pKi is listed for CC(=O)N[C@@H](CC(C)C)C(=O)N[C@H](C(=O)N[C@@H](Cc1ccccc1)C(=O)N[C@]1(C)CCCCCCC=CCCC[C@@](C)(C(=O)N[C@@H](CO)C(=O)N[C@@H](CCCNC(=N)N)C(=O)N[C@@H](C)C(N)=O)NC(=O)[C@H](CC2CCC2)NC(=O)[C@H](CCC(N)=O)NC(=O)[C@H](C)NC(=O)[C@H](Cc2c[nH]c3ccccc23)NC(=O)[C@H](Cc2ccc(O)cc2)NC(=O)[C@H](CCC(=O)O)NC1=O)[C@@H](C)O [compound 365] (Ac-LTF[R8]EYWAQ[Cba][S5]SRA-NH2; staple 4-11) ?
Result :: > 8.00
